Reported AUC(0-t) values are given for each entry in this list.
Test: Pharmacokinetic test in beagle dogs
Type: in vivo
Settings: male, dog, po, plasma, i.g. (5 mg/kg)
// units = ng·h/mL; emit number, no label

COMPOUND	AUC(0-t) [ng·h/mL]
[O-][S@+]1CCc2nc(N3CCC=C(c4ccc(Cl)cc4)CC3)nc(NC3(CO)CCC3)c21 [Compound 5]	5020

The record that follows has no AUC(0-t) shown yet.
Would you mind telling me what AUC(0-t) value was observed for [O-][S@+]1CCc2nc(N3C[C@H]4CN(c5ccc6c(c5)CC6)C[C@H]4C3)nc(NC3(CO)CCC3)c21 [Compound 31] ?
26100

----------
Assay: Pharmacokinetic test in monkeys
Type: in vivo, cynomolgus monkeys
Settings: male, cynomolgus monkey, iv, plasma, i.v. (1 mg/kg)
REPORTED_ENDPOINT: AUC(0-t) (µg·h/mL)
// units = µg·h/mL; emit number, no label

Would you mind telling me what AUC(0-t) value was observed for [O-][S@+]1CCc2nc(N3C[C@H]4CN(c5ccc6c(c5)CC6)C[C@H]4C3)nc(NC3(CO)CCC3)c21 ?
8.55

----------
Reported Vd values are given for each entry in this list.
Assay: Pharmacokinetic test in beagle dogs
Type: in vivo
Conditions: male, dog, iv, plasma, i.v. (1 mg/kg), read-out: Vdss
// units = L/kg; emit number, no label

COMPOUND	Vd [L/kg]
[O-][S@+]1CCc2nc(N3CCC=C(c4ccc(Cl)cc4)CC3)nc(NC3(CO)CCC3)c21 [Compound 5]	4.16

Would you mind telling me what Vd value was observed for [O-][S@+]1CCc2nc(N3C[C@H]4CN(c5ccc6c(c5)CC6)C[C@H]4C3)nc(NC3(CO)CCC3)c21 [Compound 31] ?
0.957

----------
pIC50: −log10 of the molar value.
Recorded below: pIC50, system PDE4D2 (Homo sapiens, UniProt Q08499).

COMPOUND	OBS_VALUE
N#CC1(c2cnc(C3=CCN(c4nc5c(c(NC6(CO)CCC6)n4)[S@+]([O-])CC5)CC3)nc2)CC1	7.30 to 8.00
[O-][S+]1CCc2nc(N3CC=C(c4ncc(C5CC5)cn4)CC3)nc(NC3(CO)CCC3)c21 (stereo not drawn)	> 8.00

Quick check: pIC50 on PDE4D2 (Homo sapiens, UniProt Q08499), item N#Cc1cnc(C2=CCN(c3nc4c(c(NC5(CO)CCC5)n3)[S@+]([O-])CC4)CC2)nc1 ?
7.30 to 8.00

Quick check: pIC50 on PDE4D2 (Homo sapiens, UniProt Q08499), item [O-][S@+]1CCc2nc(N3CC=C(c4cccc(S(F)(F)(F)(F)F)c4)CC3)nc(NC3(CO)CCC3)c21 ?
7.30 to 8.00

Quick check: pIC50 on PDE4D2 (Homo sapiens, UniProt Q08499), item [O-][S@+]1CCc2nc(N3CCC=C(c4ccc(Cl)cc4)CC3)nc(NC3(CO)CCC3)c21 ?
> 8.00

Quick check: pIC50 on PDE4D2 (Homo sapiens, UniProt Q08499), item [O-][S@+]1CCc2nc(N3C[C@H]4CN(c5ccc6c(c5)CC6)C[C@H]4C3)nc(NC3(CO)CCC3)c21 ?
> 8.00

Quick check: pIC50 on PDE4D2 (Homo sapiens, UniProt Q08499), item C[Si]1(C)CCN(c2cnc(C3=CCN(c4nc5c(c(NC6(CO)CCC6)n4)[S@+]([O-])CC5)CC3)nc2)CC1 ?
> 8.00

Quick check: pIC50 on PDE4D2 (Homo sapiens, UniProt Q08499), item [O-][S@+]1CCc2nc(N3Cc4cc5c(cc4C3)CCC5)nc(NC3(CO)CCC3)c21 ?
7.30 to 8.00

Quick check: pIC50 on PDE4D2 (Homo sapiens, UniProt Q08499), item [O-][S@+]1CCc2nc(N3CCC=C(c4ccc5c(c4)CC5)CC3)nc(NC3(CO)CCC3)c21 ?
> 8.00
